- experimental-details: Pharmacokinetics of FA after IV and oral
- Assay type: in vivo, Sprague-Dawley rats
- cond: Sprague-Dawley, rat, serum, iv, 25 mg/kg, clearance, 25 mg/kg IV
measurement-kind: clearance
Give the figure together with its unit, number first.

Query: clearance; subject: CCCCc1ccc(C(=O)O)nc1
1.35 mL/min

====

- experimental-details: Pharmacokinetics of FA after IV and oral
- Assay type: in vivo, Sprague-Dawley rats
- cond: Sprague-Dawley, rat, serum, iv, 10 mg/kg, clearance, 10 mg/kg IV
measurement-kind: clearance (mL/min)
Expressed in mL/min, but write only the number.

Query: clearance; subject: CCCCc1ccc(C(=O)O)nc1
0.783
